Data origin: ChEMBL document CHEMBL6092207

Biological target: UniProt:P0DTD1
reported-endpoint: pIC50
To interpret pIC50, take it as minus log10 of a concentration measured in moles per litre.

Prompt: Lab note: need pIC50 for O=C1C[C@H]2CCCN2C(=O)c2cncc(c2)/C=C/CCCCCNC(=O)[C@@H](Cc2ccc(F)cc2F)N1 on UniProt:P0DTD1, anyone have it?
Response: 7.68

Prompt: Lab note: need pIC50 for O=C1C[C@H]2CCCN2C(=O)c2cncc(c2)/C=C/CCCCCCOC(=O)[C@@H](Cc2ccc(Cl)cc2)N1 on UniProt:P0DTD1, anyone have it?
Response: 7.00

Prompt: Lab note: need pIC50 for CNC[C@@H](Cc1ccc(Cl)cc1)N(C)C(=O)C[C@H]1CCCN1C(=O)c1cncc2ccccc12 on UniProt:P0DTD1, anyone have it?
Response: 7.10

Prompt: Lab note: need pIC50 for CN1C(=O)C[C@H]2CC3(CC3)CN2C(=O)c2cncc(c2)/C=C/CCCCCNC(=O)[C@H]1Cc1ccc(Cl)cc1Cl on UniProt:P0DTD1, anyone have it?
Response: 8.05

Prompt: Lab note: need pIC50 for CNC(=O)[C@@H]1C/C=C/CCNc2cncc(c2)C(=O)N2CC3(CC3)C[C@@H]2CC(=O)N(C)[C@H](Cc2ccc(Cl)cc2Cl)C(=O)N1 on UniProt:P0DTD1, anyone have it?
Response: 8.15

Prompt: Lab note: need pIC50 for CNC(=O)[C@@H]1CCCCCNc2cncc(c2)C(=O)N2CC3(CC3)C[C@@H]2CC(=O)N(C)[C@H](Cc2ccc(Cl)cc2Cl)C(=O)N1 on UniProt:P0DTD1, anyone have it?
Response: 8.15

Prompt: Lab note: need pIC50 for CN1C(=O)C[C@H]2CC3(CC3)CN2C(=O)c2cncc(c2)NCCC/C=C/CNC(=O)[C@H]1Cc1ccc(Cl)cc1Cl on UniProt:P0DTD1, anyone have it?
Response: 8.15
